# TARGET: T1, protein A (UniProt P38507 37-477)
# T1 construct: Bought (Pierce); immobilized on CM5 chip by amine coupling; also called recombinant protein A
# METHOD_NOTES: SPR (Biacore 3000), VH over immobilized protein A
PROPERTY_LABEL: pKd
// field semantics: pKd = negative decimal log of concentration (mol/L)

Reference set (5 entries):
BINDER | PROPERTY_LABEL | OBSERVED_MEASUREMENT
HVHP419S (antibody, V domains shown, Cys49/Cys69 (Kabat) mutant of HVHP419; VH single-domain antibody; tag not specified) VH: QLQLQESGGGLVQPGGSLRLSCAASGFTFSSYAMSWVRQAPGKGLEWVCAISGSGGSTYYADSVKGRFTCSRDNSKNSLYLQMNSLGAEDTAVYYCARSWSGSSYGGDLDSWGQGTLVTVSS | pKd | 5.32
HVHPC235S (antibody, V domains shown, Cys49/Cys69 (Kabat) mutant of HVHPC235; VH single-domain antibody; tag not specified; also called HVHAmC235S; HVHP235S) VH: QVQLVESGGGLIKPGGSLRLSCAASGFSVISESMTWVRQAPGKGLEWVCAISSSGGSTYYADSVKGRFTCSRDNSKNTVHLQMNSLRAEDTAVYYCAAKKIDGARYDYWGQGTMVTVSS | pKd | 5.52
HVHAm431S (antibody, V domains shown, Cys49/Cys69 (Kabat) mutant of HVHAm431; VH single-domain antibody; tag not specified) VH: QVQLVESGGGLIKPGGSLRLSCAASGYTVSSECMGWVRQAPGKGLEWVCAISSSSGSTYYADSVKGRFTCSRDNSKNTVYLQMNSLRAEDTAVYYCVRDSKNCHDKDCTRPYCSWGQGTMVTVSS | pKd | 5.10
HVHP414S (antibody, V domains shown, Cys49/Cys69 (Kabat) mutant of HVHP414; VH single-domain antibody; tag not specified) VH: DVQLVQSGGGLVKPGGSLRLSCTASGFPFSNAWMSWVRQAPGKGLEWVCRITSKTDGGTTDYVAPVKGRFTCSRDDSKNTLYLQMNSLKTEDTAVYYCTTDQANAFDIWGQGTMVTVSS | pKd | 5.74
HVHM41S (antibody, V domains shown, Cys49/Cys69 (Kabat) mutant of HVHM41; VH single-domain antibody; tag not specified) VH: QVQLVQSGGGLVQPGRSLRLSCAASGFAFSSYAMSWVRQAPGKGLEWVCAISGGGDHTYYADSVKGRFTCSRDNSKNTLYLQMNSLRAEDTAVYYCAKEGMVRGVSSAPFDYWGQGTLVTVSS | pKd | 5.82

What the record says about HVHP428S (antibody, V domains shown, Cys49/Cys69 (Kabat) mutant of HVHP428; VH single-domain antibody; tag not specified) VH: QLQLQESGGGLVQPGGSLRLSCAASGFTFSSYAMSWFRQAPGKGLEWVCFIRSKAYGGTTEYAASVKGRFTCSRDDSKSIAYLQMNSLRAEDTAMYYCARRAKDGYNSPEDYWGQGTLVTVSS : pKd is 5.80

The reported value for HVHAm427 (antibody, V domains shown, Human VH single-domain antibody (wild-type), tested alone; tag not specified) VH: QVQLVESGGGLIKPGGSLRLSCAASGVTLSPECMAWVRQAPGKGLEWVSAISSSGGSTYYADSVKGRFTISRDNSKNTVYLQMNSLRAEDTAVYYCVSCEGENAFWGQGTMVTVSS in terms of pKd is 5.80

The binder listed as HVHM81S (antibody, V domains shown, Cys49/Cys69 (Kabat) mutant of HVHM81; VH single-domain antibody; tag not specified) VH: EVQLVQSGGGLVQPGRSLRLSCAASGFTFDDYAMHWVRQAPGKGLEWVCGISGSGASTYYADSVKGRFTCSRDNSKNTLYLQMNSLRAGDTALYYCARQSITGPTGAFDVWGQGTMVTVSS shows pKd equal to 5.68
